Biological target: T-L active center of the proteasome (mouse) (Mus musculus, UniProt P70195)
Sequence (P70195 44-277): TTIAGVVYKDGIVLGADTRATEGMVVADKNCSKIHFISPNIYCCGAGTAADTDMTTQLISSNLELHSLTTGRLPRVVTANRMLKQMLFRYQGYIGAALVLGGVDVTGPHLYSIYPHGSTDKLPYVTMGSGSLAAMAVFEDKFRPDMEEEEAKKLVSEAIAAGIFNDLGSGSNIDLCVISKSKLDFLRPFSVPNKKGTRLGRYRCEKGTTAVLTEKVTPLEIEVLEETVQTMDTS
Assay: Peptidolytic assay, T-L activity, mouse liver subcellular fractions
Type: biochemical
Conditions: T-L IC50 Ms, cytosolic fraction, ± S.E.
Residues, ends and D or L forms follow the SMILES beside them. *: point of attachment. Cbz = O=C(OCc1ccccc1)*
Readout label: IC50 (µM)

* CC(C)C[C@@H](C=O)NC(=O)[C@H](CC(C)C)NC(=O)[C@H](CC(C)C)NC(=O)OCc1ccccc1 [MG132] (Cbz-Leu-Leu-Leu-aldehyde) | 14.6

* * *

Target: T-L active center of the proteasome (mouse) (Mus musculus, UniProt P70195)
Assay: Peptidolytic assay, T-L activity, mouse liver subcellular fractions
Format: biochemical
Conditions: T-L IC50 Ms, nuclear fraction, ± S.E.
pIC50: −log10 of the molar value. Residues, ends and D or L forms follow the SMILES beside them. *: point of attachment. Cbz = O=C(OCc1ccccc1)*
Readout label: pIC50

- CC(C)C[C@@H](C=O)NC(=O)[C@H](CC(C)C)NC(=O)[C@H](CC(C)C)NC(=O)OCc1ccccc1 [MG132] (Cbz-Leu-Leu-Leu-aldehyde): 4.89

* * *

Molecular target: ChT-L active center of the proteasome (mouse) (Mus musculus, UniProt O55234)
Sequence (O55234 60-264): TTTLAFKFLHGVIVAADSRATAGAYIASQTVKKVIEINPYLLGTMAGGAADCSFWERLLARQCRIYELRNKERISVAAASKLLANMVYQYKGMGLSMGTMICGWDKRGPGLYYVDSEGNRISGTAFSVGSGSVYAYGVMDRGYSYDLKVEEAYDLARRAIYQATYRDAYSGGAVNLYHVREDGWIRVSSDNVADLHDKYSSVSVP
Experiment: Peptidolytic assay, ChT-L activity, mouse liver subcellular fractions
Type: biochemical
Conditions: read-out: ChT-L IC50 Ms, cytosolic fraction, ± S.E.
Readout label: IC50 (µM)

• CC(C)CC(C=CS(C)(=O)=O)NC(=O)[C@H](CC(C)C)NC(=O)[C@H](CC(C)C)NC(=O)CCCCCNC(=O)CCCCCNC(=O)CCCCCNC(=O)CC12CC3CC(CC(C3)C1)C2 (stereo partly shown) = 5.56

* * *

Target: UniProtKB O55234
Assay: Peptidolytic assay, ChT-L activity, mouse liver subcellular fractions
Type: biochemical
Details: ChT-L IC50 Ms, nuclear fraction, ± S.E.
Residues, ends and D or L forms follow the SMILES beside them. *: point of attachment. Cbz = O=C(OCc1ccccc1)*
Readout label: IC50 (µM)

- CC(C)C[C@@H](C=O)NC(=O)[C@H](CC(C)C)NC(=O)[C@H](CC(C)C)NC(=O)OCc1ccccc1 [MG132] (Cbz-Leu-Leu-Leu-aldehyde): 4.6

* * *

Target: T-L active center of the proteasome (NMR) (Heterocephalus glaber, UniProt A0A0P6JE03)
Experiment: Peptidolytic assay, T-L activity, naked mole-rat liver subcellular fractions
Conditions: read-out: T-L IC50 NMR, cytosolic fraction, ± S.E.
pIC50: −log10 of the molar value.
Readout label: pIC50

- CC(C)CC(C=CS(C)(=O)=O)NC(=O)[C@H](CC(C)C)NC(=O)[C@H](CC(C)C)NC(=O)CCCCCNC(=O)CCCCCNC(=O)CCCCCNC(=O)CC12CC3CC(CC(C3)C1)C2 (stereo partly shown): 4.09

* * *

Target: ChT-L active center of the proteasome (mouse) (Mus musculus, UniProt O55234)
Test: Peptidolytic assay, ChT-L activity, mouse liver subcellular fractions
Assay type: biochemical
Conditions: ChT-L IC50 Ms, microsomal fraction
pIC50: −log10 of the molar value. Residues, ends and D or L forms follow the SMILES beside them. *: point of attachment. Cbz = O=C(OCc1ccccc1)*
Readout label: pIC50

* CC(C)C[C@@H](C=O)NC(=O)[C@H](CC(C)C)NC(=O)[C@H](CC(C)C)NC(=O)OCc1ccccc1 [MG132] (Cbz-Leu-Leu-Leu-aldehyde) | 6.00

* * *

Target: ChT-L active center of the proteasome (mouse) (Mus musculus, UniProt O55234)
Experiment: Peptidolytic assay, ChT-L activity, mouse liver subcellular fractions
Type: biochemical
Conditions: ChT-L IC50 Ms, cytosolic fraction, ± S.E.
Residues, ends and D or L forms follow the SMILES beside them. *: point of attachment. Cbz = O=C(OCc1ccccc1)*
Here, each record is paired with measured IC50 data.
Readout label: IC50 (µM)

- CC(=O)N[C@@H](CSC(=O)[C@]1([C@@H](O)C(C)C)NC(=O)[C@H](C)[C@@H]1O)C(=O)O [LC, lactacystin]: 0.156
- CC(C)C[C@@H](C=O)NC(=O)[C@H](CC(C)C)NC(=O)[C@H](CC(C)C)NC(=O)OCc1ccccc1 [MG132] (Cbz-Leu-Leu-Leu-aldehyde): 8.22

* * *

Biological target: UniProtKB P70195
Assay: Peptidolytic assay, T-L activity, mouse liver subcellular fractions
Type: biochemical
Conditions: T-L IC50 Ms, microsomal fraction
Residues, ends and D or L forms follow the SMILES beside them. *: point of attachment. Cbz = O=C(OCc1ccccc1)*
Readout label: IC50 (µM)

- CC(C)C[C@@H](C=O)NC(=O)[C@H](CC(C)C)NC(=O)[C@H](CC(C)C)NC(=O)OCc1ccccc1 [MG132] (Cbz-Leu-Leu-Leu-aldehyde): 6.63
